Target: E. coli topoisomerase IV (Escherichia coli, UniProt P20083)
Construct: purchased Inspiralis
Sequence (P0AFI2 whole entry): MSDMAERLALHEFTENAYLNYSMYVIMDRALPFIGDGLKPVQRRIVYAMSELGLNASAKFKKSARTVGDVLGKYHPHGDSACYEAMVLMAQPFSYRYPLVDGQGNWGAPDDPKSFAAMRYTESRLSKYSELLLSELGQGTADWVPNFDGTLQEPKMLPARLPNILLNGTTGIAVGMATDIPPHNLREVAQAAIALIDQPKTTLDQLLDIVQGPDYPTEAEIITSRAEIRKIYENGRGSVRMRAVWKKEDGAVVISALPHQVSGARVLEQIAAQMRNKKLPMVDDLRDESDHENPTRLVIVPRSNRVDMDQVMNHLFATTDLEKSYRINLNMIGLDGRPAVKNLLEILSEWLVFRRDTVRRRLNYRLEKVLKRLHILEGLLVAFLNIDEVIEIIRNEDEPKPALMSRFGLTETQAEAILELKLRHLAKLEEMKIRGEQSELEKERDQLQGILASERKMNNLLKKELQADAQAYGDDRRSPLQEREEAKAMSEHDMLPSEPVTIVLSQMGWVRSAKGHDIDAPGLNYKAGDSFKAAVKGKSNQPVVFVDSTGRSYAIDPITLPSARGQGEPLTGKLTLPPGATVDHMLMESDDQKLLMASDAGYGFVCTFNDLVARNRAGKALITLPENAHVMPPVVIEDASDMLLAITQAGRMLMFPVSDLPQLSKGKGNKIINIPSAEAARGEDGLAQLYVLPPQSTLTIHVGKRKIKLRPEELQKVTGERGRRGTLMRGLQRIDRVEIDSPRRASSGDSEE
Sequence (P20083 whole entry): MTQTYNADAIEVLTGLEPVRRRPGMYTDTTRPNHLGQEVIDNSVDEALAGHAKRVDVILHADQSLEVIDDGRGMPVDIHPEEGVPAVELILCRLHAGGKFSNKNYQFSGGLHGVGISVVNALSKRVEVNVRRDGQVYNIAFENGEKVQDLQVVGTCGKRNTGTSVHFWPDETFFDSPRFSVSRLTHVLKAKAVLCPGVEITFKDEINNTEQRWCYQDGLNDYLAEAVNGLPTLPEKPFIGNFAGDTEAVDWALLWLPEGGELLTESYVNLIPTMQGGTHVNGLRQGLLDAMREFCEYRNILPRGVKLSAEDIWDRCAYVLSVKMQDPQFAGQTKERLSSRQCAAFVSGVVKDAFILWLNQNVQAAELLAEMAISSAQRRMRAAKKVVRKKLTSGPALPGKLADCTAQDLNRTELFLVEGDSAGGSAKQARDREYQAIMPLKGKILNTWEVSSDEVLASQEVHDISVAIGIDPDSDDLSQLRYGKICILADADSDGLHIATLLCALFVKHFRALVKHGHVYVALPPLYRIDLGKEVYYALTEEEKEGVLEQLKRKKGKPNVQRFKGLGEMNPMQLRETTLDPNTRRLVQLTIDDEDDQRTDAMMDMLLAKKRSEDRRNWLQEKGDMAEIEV
Assay: biochemical
Details: E. coli topo IV; 10 μM compound; read-out: RA (residual activity of the enzyme)
Procedure: Inhibitory activities for compounds of the present invention were determined on E. coli and S. aureus DNA gyrase and topoisomerase IV in an assay from Inspiralis on streptavidin-coated 96-well microtiter plates from Thermo scientific Pierce. […] After washing off the unbound oligonucleotide, the enzyme test was performed. […] Reaction solutions were incubated at 37° C. for 30 min. […]
Observation Type: remaining activity at 10 µM (%)
Give your result in % as a bare value.

Per the record, `Cc1[nH]c(C(=O)Nc2ccc(-c3n[nH]c(=O)o3)cc2N2CCOCC2)c(Cl)c1Cl` has remaining activity at 10 µM of 54

Entry under test: `Cc1[nH]c(C(=O)Nc2ccc(-c3n[nH]c(=O)o3)cc2OCCC2CCNCC2)c(Cl)c1Cl.Cl` . Its remaining activity at 10 µM was 103

The compound listed as Cc1[nH]c(C(=O)Nc2ccc(-c3n[nH]c(=O)o3)cc2N2CC(C)OC(C)C2)c(Cl)c1Cl (stereo not drawn) shows remaining activity at 10 µM equal to 105

The reported remaining activity at 10 µM of the compound `Cl.O=C(O)CNC(=O)c1ccc(NC(=O)c2cc(Br)c(Br)[nH]2)c(N2CCNCC2)c1` was 97

Memo: Cc1[nH]c(C(=O)Nc2ccc(-c3n[nH]c(=O)o3)cc2N2CCOC(C)C2)c(Cl)c1Cl (stereo not drawn) , reported remaining activity at 10 µM: 102
